The values you see were collected from patent US20260049134A1.

# assay-system: T1, GARS, endogenous in H929 multiple myeloma cells (human, UniProt P41250 37-739, limits assumed)
# T1 construct: Native protein pulled down from H929 lysates; also called Glycyl-tRNA synthetase; GlyRS
# T1 sequence: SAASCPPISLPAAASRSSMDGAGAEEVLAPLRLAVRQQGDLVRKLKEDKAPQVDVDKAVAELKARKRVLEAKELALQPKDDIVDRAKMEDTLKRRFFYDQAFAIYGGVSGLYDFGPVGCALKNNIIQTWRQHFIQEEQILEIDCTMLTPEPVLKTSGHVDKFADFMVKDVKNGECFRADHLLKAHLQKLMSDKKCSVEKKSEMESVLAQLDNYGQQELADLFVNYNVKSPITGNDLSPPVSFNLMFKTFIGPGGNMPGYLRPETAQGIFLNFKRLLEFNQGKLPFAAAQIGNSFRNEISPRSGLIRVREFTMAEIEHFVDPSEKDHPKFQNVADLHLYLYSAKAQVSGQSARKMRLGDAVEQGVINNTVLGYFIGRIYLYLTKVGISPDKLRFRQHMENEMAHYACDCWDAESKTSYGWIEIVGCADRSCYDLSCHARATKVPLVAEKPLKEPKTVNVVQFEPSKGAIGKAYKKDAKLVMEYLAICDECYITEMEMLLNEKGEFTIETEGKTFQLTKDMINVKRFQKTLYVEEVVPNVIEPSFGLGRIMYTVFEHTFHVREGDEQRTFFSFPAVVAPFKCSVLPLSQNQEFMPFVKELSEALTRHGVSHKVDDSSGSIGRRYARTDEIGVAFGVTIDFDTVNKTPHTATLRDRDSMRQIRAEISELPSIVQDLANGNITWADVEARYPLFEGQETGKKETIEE
# protocol-details: flow cytometry, H929 + NT Green siRNA; None 1.35; surface target GARS putative
So I've got a bunch of binders here, and I need their Cells stained (%) values.
Answers are plain numbers, in %.

Give measured Cells stained (%) for every item shown.
1. HW-81 chimeric rabbit-human IgG1 LA/LA/PG (antibody, V domains shown, Fc-silenced (L234A/L235A/P329G) IgG1, lambda; Alexa Fluor 647-labeled in single-step flow cytometry; Cluster C-45) VH: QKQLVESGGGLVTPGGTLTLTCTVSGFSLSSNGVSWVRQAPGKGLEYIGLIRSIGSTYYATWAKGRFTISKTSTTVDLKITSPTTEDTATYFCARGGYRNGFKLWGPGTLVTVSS VL: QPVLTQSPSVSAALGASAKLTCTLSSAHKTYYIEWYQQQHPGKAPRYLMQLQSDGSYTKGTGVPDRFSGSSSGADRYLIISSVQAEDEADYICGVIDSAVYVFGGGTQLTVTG
2. HW-45 chimeric rabbit-human IgG1 LA/LA/PG (antibody, V domains shown, Fc-silenced (L234A/L235A/P329G) IgG1, lambda; Alexa Fluor 647-labeled in single-step flow cytometry; Prototype of cluster C-45) VH: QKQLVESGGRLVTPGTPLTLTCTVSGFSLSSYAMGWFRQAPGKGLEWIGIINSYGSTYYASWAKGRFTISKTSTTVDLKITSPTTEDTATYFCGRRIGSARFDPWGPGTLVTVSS VL: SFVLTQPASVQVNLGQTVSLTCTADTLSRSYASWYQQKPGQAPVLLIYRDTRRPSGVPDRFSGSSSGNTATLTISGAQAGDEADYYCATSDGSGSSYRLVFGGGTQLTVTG
3. HW-56 chimeric rabbit-human IgG1 LA/LA/PG (antibody, V domains shown, Fc-silenced (L234A/L235A/P329G) IgG1, kappa; Alexa Fluor 647-labeled in single-step flow cytometry; Cluster C-45) VH: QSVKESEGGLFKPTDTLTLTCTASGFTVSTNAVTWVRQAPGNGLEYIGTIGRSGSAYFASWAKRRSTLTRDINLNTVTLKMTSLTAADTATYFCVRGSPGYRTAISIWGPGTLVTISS VL: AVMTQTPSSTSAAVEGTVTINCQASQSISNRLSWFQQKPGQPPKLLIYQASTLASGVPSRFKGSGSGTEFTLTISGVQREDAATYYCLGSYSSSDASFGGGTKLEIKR

Resp:
[99.7, 97.9, 99.7]
